Biological target: T1, soluble human GPNMB (recombinant extracellular domain) (human, UniProt Q14956 23-498)
T1 construct: also called huGPNMB; recombinant human GPNMB extracellular domain; not shown: C-terminal polyhistidine or Avi-His tag
T1 sequence: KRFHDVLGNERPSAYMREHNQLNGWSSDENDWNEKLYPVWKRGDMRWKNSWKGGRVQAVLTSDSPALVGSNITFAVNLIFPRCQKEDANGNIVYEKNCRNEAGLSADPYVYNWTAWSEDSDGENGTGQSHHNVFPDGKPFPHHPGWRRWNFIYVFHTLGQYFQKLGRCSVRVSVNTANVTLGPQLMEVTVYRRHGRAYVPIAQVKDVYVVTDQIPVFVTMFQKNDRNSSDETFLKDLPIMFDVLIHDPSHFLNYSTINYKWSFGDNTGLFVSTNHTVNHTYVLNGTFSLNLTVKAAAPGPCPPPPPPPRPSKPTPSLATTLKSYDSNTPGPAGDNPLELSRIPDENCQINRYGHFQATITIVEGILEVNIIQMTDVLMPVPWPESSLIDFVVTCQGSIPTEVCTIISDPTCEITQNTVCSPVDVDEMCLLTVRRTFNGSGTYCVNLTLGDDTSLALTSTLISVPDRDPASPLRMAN
Test: SPR Carterra, Ab immobilized
Reported property: kon
Please don't drop the unit; write it after the number.

1) anti-GPNMB antibody GPN-35 (antibody, human IgG1, V domains shown, chimeric) VH: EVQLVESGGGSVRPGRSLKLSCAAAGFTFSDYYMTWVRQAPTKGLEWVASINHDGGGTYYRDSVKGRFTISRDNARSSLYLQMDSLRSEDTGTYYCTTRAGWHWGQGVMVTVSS VL: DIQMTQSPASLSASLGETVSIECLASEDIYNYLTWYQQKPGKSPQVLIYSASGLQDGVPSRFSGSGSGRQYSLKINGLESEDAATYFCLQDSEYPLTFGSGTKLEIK: 71000 M⁻¹ s⁻¹

Short answer for anti-GPNMB antibody GPN-34 (antibody, human IgG1, V domains shown, chimeric) VH: EVKLVESGGGLVQPGRSLKLSCAASGFNFYDYWMGWVRQAPGKGLEWIGEINKDSRTINYTPFLKDRFTISRDNAQNTLYLQMSKLGSEDTAIYYCAREGRVPFDYWGQGVMVTVSS VL: DIQMTQSPSSMSVSLGDTVTIPCRASQDVGSYVNWFQQKPGKSPRHMIYRATNLADGVPSRFSGSRSGADYSLTISSLESEDVADYHCQQYAEYPLTFGSGTKLEIK : kon was 190000 M⁻¹ s⁻¹
